Read-out: matrix metalloproteinase-10 (MMP10), MMP10 (gene 4319)
Test: LTEA_HepaRG_MMP10: Life Technologies and Expression Analysis (LTEA) Assay for matrix metalloproteinase-10 (MMP10) using HepaRG (AID 2283517)
Conditions: mRNA level, 48 h; actives raise or lower the signal
Calls of active or inactive are those of the source. How the source made its calls: active means hit-call score of the fitted dose curve at least 0.9, where 1 is the maximum; inactive means score below 0.9.
Lab note: assign the record to one of active, inactive

Consider the following illustrative entries.
CC(O)CC(C)(C)O (stereo unspecified) | inactive
OCCO | inactive
CCCCCc1ccc(N)cc1 | inactive

What was the test verdict on CCCCCCCCOc1ccc(C(=O)c2ccccc2)c(O)c1 ?
inactive

GET /call?item= CCCCCCCC[Si](OCC)(OCC)OCC returns the recorded outcome of this test.
inactive

What did the test return for c1ccc2ccccc2c1 ?
inactive

// param item: CCN(CC)C(=O)c1cc(S(=O)(=O)Cc2ccccc2)c(N2CCC(c3ccccc3)CC2)cc1N(CC)CCN(C)C ; yields the recorded call
active

Lab log entry: O=C(O)c1ccccc1-n1cc(C(=O)O)c(=O)c2cc(Nc3c(F)cc(F)cc3Cl)c(Cl)cc21 — outcome as called in the assay?
inactive

Record request — test call for O=C(O)c1ccccc1C(=O)OCc1ccccc1
inactive

What did the test return for O=C(O)Cn1c(=O)n(Cc2ccc(Br)cc2F)c(=O)c2ccc(Cl)cc21 ?
inactive

Kindly provide the recorded test outcome for the following compound: Clc1ccccc1C(c1ccccc1)(c1ccccc1)n1ccnc1
active
